Tested on: HCT-116 colon
test-description: NCI-60 one-dose screen, 48 h
details: 10 µM unless noted
The panel holds about 83,000 compounds, 20% with a hit somewhere; the sample as a whole holds those more often. Activity calls are given as the source filed them. How the source made its calls: active means growth percent below 10; inactive means the rest.
# output must be one of y = active, n = inactive

Answered examples (5):
COc1cc2c(cc1O)CC[C@@H]1[C@@H]2CC[C@]2(C)[C@@H](NCCN(C)C)CC[C@@H]12	y
CCc1nc(N)nc(N)c1C#CC(C)c1ccc(-c2ccncc2)cc1Cl (stereo not drawn)	n
COc1cc(/C=C/C(=O)c2c(C)oc3nc[nH]c(=O)c23)cc(OC)c1OC	n
CS(=O)(=O)c1ccc(-n2nc(-c3ccc(Br)cc3)c3ccccc3c2=O)cc1	n
CCn1c(O)c(/C=N/NC(=O)C(C)c2ccc(CC(C)C)cc2)sc1=S (stereo not drawn)	n

Prompt line: Returns: the outcome recorded for CCOc1ccc(C(C)=O)cc1NC(=O)c1cccc(-c2nnn(CC)n2)c1 in this assay.
Response line: n

Prompt line: Would you mind telling me which call this test gave COc1ccc(-n2nc(C)c3c(Nc4ccc(NC(=O)Nc5cccc(C(F)(F)F)c5)cc4)ncnc32)cc1 ?
Response line: y

----------
Tested on: SK-MEL-5 melanoma
test-description: NCI-60 one-dose screen, 48 h (100 = growth as untreated, 0 = no growth, -100 = all killed)
details: 10 µM unless noted
Method: Growth inhibition of the SK-MEL-5 human tumor cell line is measured as a screen for anti-cancer activity. Cells are grown in 96 well plates and exposed to the test compound for 48 hours. Compounds are tested at a single concentration, which is 10^-5 M for most compounds. The reported endpoint is percent growth (GI% or GIPRCNT), where numbers from 0 - 100% represent growth inhibition, and numbers from -100% - 0 represent cell death. For example, a value of 40 represents 60% growth inhibition. […]
About 83,000 compounds went through this panel and 20% of them were active in at least one assay; those are over-represented in the sample as a whole.
Assign class by growth: not lower than 80% means Satisfied; lower than 80% means Not satisfied.

Here are 5 compounds together with their reported answers.
COc1cccc(/C=N/NC(=O)c2ccccc2Nc2ccnc(C(F)(F)F)c2)c1O	Not satisfied
COc1cccc(-c2nc3sccn3c2-c2ccnc(NCCNS(=O)(=O)c3ccc(F)cc3)c2)c1	Not satisfied
N=C(N)c1ccc(-c2ccc(-c3ccc4ccccc4c3)s2)s1	Satisfied
CSc1nc(NCCN2CCOCC2)c(C#N)c(-c2cccc([N+](=O)[O-])c2)n1	Satisfied
FC(F)(F)c1nc2c(NCc3ccc(-c4ccccc4)cc3)cccc2[nH]1	Satisfied

Prompt line: Answer whether growth of CC(=O)O[C@H]1[C@@H]2OC(=O)C(CSc3ccccc3)[C@@H]2C[C@H]2O[C@]2(C)CC/C=C(\C)CCC[C@@H]1C (stereo partly drawn) is greater than or equal to 80%.
Response line: Not satisfied

Prompt line: Evaluate NC(CSC(c1ccccc1)(c1ccccc1)c1ccc(Cl)cc1)C(=O)O (stereo not drawn) : growth at minimum 80%?
Response line: Not satisfied

Prompt line: Would you say COc1ccc(C(=O)COc2ccc(/C=C3\Oc4ccc(OC)cc4C3=O)cc2)cc1 shows growth at minimum 80%?
Response line: Satisfied

Prompt line: I'd appreciate it if you could say whether O=C(CN1C(=O)/C(=C/c2ccc(Cl)cc2)SC1=S)NCCCN1CCOCC1 has growth at least equal to 80%.
Response line: Satisfied

Prompt line: Quick check, growth >= 80%? O=C1/C(=C/N2N=C(c3ccc4ccccc4c3)CC2c2ccccc2O)SC(=S)N1c1cccnc1 (stereo not drawn)
Response line: Not satisfied
